Tested on: MALME-3M melanoma
Assay: NCI tumour cell line growth inhibition, 384-well format; in the data active = GI50 below about 0.43 µM; inactive = the rest
Thanks in advance; please answer with one of these: active, inactive

Prompt: Tell me the assay call for CN(C)C/C=C/C(=O)Nc1ccc(C(=O)N[C@@]2(C)CCC[C@@H](Nc3ncc(Cl)c(-c4c[nH]c5ccccc45)n3)C2)nc1 please.
Completion: active

Prompt: Tell me the assay call for O=C(O)c1ccc(CN2CCC(CN[C@@H]3C[C@H]3c3ccccc3)CC2)cc1 please.
Completion: inactive

Prompt: Tell me the assay call for Cc1cc2c(cc1C)NC1=C(N2)OC(c2c3ccccc3cc3ccccc23)C1=O (centres undefined) please.
Completion: active

Prompt: Tell me the assay call for C=CC(=O)N1CCC(Oc2cc3c(Nc4ccc(Cl)c(Cl)c4F)ncnc3cc2OC)CC1 please.
Completion: inactive

---

System: SK-MEL-5 melanoma
Assay: NCI tumour cell line growth inhibition, 384-well format
property: GI50

Prompt: Provide GI50, tested on SK-MEL-5 melanoma, for C=CC(=O)N1CCC(Oc2cc3c(Nc4ccc(Cl)c(Cl)c4F)ncnc3cc2OC)CC1 .
Completion: 2980 nM

Prompt: Provide GI50, tested on SK-MEL-5 melanoma, for COc1cccc2c1C(=N)c1c(O)c3c(c(O)c1C2=O)C[C@@](O)(C(C)=O)C[C@@H]3O[C@H]1C[C@H](N)[C@H](O)[C@H](C)O1 .
Completion: 97.3 nM

Prompt: Provide GI50, tested on SK-MEL-5 melanoma, for Cc1cc2c(cc1C)NC1=C(N2)OC(c2c3ccccc3cc3ccccc23)C1=O (centres undefined) .
Completion: 603 nM

Prompt: Provide GI50, tested on SK-MEL-5 melanoma, for O=C(O)c1ccc(CN2CCC(CN[C@@H]3C[C@H]3c3ccccc3)CC2)cc1 .
Completion: > 100000 nM
